Target: human ether-à-go-go-related gene (hERG) potassium channel (human, UniProt Q12809);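 also: peak tail current of the secondary pulse compared with the same well before compound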
Sequence (Q12809 whole entry, looked up): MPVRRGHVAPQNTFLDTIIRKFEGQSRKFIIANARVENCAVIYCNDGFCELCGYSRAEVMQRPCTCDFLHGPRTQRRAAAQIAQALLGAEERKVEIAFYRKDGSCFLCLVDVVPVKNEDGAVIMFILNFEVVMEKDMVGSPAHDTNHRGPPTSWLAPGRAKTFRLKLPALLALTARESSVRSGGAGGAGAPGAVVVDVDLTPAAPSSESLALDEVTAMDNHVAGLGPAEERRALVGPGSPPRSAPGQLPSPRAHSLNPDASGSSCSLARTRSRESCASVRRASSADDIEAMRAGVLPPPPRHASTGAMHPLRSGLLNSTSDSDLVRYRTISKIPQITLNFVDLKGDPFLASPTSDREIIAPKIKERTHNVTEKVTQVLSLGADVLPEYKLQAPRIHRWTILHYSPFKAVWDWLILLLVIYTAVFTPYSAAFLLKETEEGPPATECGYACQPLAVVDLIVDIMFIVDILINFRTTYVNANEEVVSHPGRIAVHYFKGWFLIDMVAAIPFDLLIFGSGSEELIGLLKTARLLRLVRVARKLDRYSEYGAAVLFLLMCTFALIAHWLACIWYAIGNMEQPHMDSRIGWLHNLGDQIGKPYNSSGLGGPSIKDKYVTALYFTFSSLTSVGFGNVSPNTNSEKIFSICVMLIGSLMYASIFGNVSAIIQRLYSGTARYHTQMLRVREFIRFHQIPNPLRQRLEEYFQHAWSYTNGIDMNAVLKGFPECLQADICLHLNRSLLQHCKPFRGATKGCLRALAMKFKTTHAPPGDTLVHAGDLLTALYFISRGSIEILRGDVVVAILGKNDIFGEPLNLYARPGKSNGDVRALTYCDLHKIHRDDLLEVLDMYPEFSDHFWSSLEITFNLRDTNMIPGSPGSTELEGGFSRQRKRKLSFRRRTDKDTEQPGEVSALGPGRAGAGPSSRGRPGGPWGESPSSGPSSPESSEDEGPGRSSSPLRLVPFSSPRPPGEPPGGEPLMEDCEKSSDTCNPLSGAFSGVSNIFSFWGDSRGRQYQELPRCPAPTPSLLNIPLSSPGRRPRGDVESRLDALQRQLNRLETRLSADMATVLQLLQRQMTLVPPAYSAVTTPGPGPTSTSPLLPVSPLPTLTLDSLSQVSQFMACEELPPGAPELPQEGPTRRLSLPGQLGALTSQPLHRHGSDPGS
Assay: primary screen, population patch clamp on CHO cells stably expressing hERG; higher = less effect of the substance
Description: Briefly, Chinese hamster ovary (CHO) cells stably expressing the hERG channel were dislodged from tissue culture flasks and dispensed into PPC plates. […] During the recording, background leak currents were estimated by a 100 ms step to -80 mV from an initial holding potential of -70 mV and subtracted from the subsequent current measurement. The campaign was conducted in two phases using slight differences in recording protocol. […]
Among all 310,000 compounds or so, about 14,000 (4.5%) showed an effect of 50% or more. The effect is printed as a negative number. The sample holds strong results, similar compounds and a random draw of the others, so the mix is not that of the screen.
Outcome Measure: hERG current change (%, negative = inhibition) at 10uM (%)

{"Structure": "CCOc1ccc(N/C(N)=N/c2nc(CSc3nnc(C)s3)cc(=O)[nH]2)cc1", "Tested On": "human ether-à-go-go-related gene (hERG) potassium channel (human, UniProt Q12809)", "Value": 12.5}
{"Structure": "CCc1ccc2[nH]c(=O)c(CN(CCN(C)C)C(=S)NCc3ccco3)cc2c1", "Tested On": "human ether-à-go-go-related gene (hERG) potassium channel (human, UniProt Q12809)", "Value": -52}
{"Structure": "Cc1ccc(NC(=O)C/C(N)=N/OC(=O)Nc2ccc(C)c(Cl)c2)cc1", "Tested On": "human ether-à-go-go-related gene (hERG) potassium channel (human, UniProt Q12809)", "Value": 4.56}
{"Structure": "FC(F)(F)c1nc2ccccc2nc1N/N=C\\c1ccccc1", "Tested On": "human ether-à-go-go-related gene (hERG) potassium channel (human, UniProt Q12809)", "Value": 12.3}
{"Structure": "Cc1ccc(/C=N/NC(=O)CSc2nc3ccccc3n2C)s1", "Tested On": "human ether-à-go-go-related gene (hERG) potassium channel (human, UniProt Q12809)", "Value": -17.4}

---

Molecular target: human ether-à-go-go-related gene (hERG) potassium channel (human, UniProt Q12809);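 also: peak tail current of the secondary pulse compared with the same well before compound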
Assay: primary screen, population patch clamp on CHO cells stably expressing hERG; higher = less effect of the substance
The whole screen tested about 310,000 compounds, of which about 14,000 (4.5%) showed an effect of 50% or more. Effects have a minus sign here. The sample as a whole holds a higher share of strong results than the screen did.
Outcome Measure: hERG current change (%, negative = inhibition) at 10uM

{"Compound": "COc1ccc(Cc2nc3ccc(C(=O)N(C)C(C)c4ccon4)cc3o2)cc1 (centres unmarked)", "Tested On": "human ether-à-go-go-related gene (hERG) potassium channel (human, UniProt Q12809)", "Value": "-3.64%"}
{"Compound": "O=C(NCCSCc1ccccc1)c1ccc(Cl)c(S(=O)(=O)N2CCOCC2)c1", "Tested On": "human ether-à-go-go-related gene (hERG) potassium channel (human, UniProt Q12809)", "Value": "-50%"}
{"Compound": "COc1ccc(-n2cc(CN3CCC(OC)CC3)c(-c3cccc(F)c3)n2)cc1", "Tested On": "human ether-à-go-go-related gene (hERG) potassium channel (human, UniProt Q12809)", "Value": "-13.5%"}
{"Compound": "CCC(O)C1CCN(Cc2cn(-c3ccc(OC)cc3)nc2-c2cccc(F)c2)CC1 (centres unmarked)", "Tested On": "human ether-à-go-go-related gene (hERG) potassium channel (human, UniProt Q12809)", "Value": "-75.3%"}
{"Compound": "CC(C)(CNC(=O)c1ccc(Cl)c(S(=O)(=O)N2CCc3ccccc3C2)c1)N1CCOCC1", "Tested On": "human ether-à-go-go-related gene (hERG) potassium channel (human, UniProt Q12809)", "Value": "-50.3%"}
